Can you tell me IC50 for the items I'm about to list?
# System: HeLa
# assay_info: Cytotoxicity against human HeLa cells over expressing WT-beta3 assessed as reduction in cell viability by Sulforhodamine B assay
# Type: functional, cell-based
Quick note: give the figure in nM, leave out the unit.

IN: Please give the measured IC50 for this compound: COc1ccc2c(c1)CCCN2c1nc(C)nc2ccccc12
OUT: 1.2

IN: What do you have for CSc1ccc(N(C)c2ncnc3ccccc23)cc1 ?
OUT: 7.3

IN: COc1cccc2cc(N(C)c3nc(Cl)nc4ccccc34)ccc12 , same question.
OUT: 1.6

IN: Proceed to COc1ccc(N(C)c2nc(C)nc3ccccc23)cc1
OUT: 1.5

IN: Moving on to CSc1ccc(N(C)c2nc(Cl)nc3ccccc23)cc1
OUT: 3.2

IN: What about this compound? COc1ccc2c(c1)CCCN2c1ncnc2ccccc12
OUT: 13.1

IN: Can you handle COc1cccc2cc(N(C)c3nc(C)nc4ccccc34)ccc12 next?
OUT: 1.7

meta.source: ChEMBL document CHEMBL4706704
